B1: ZC3H15 (parent)
chain: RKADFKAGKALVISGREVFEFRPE

# Variants of: B1
# protocol: protein stability index of a GFP-peptide fusion (GPS, HEK-293T) (PSI 1-6); higher = more stable;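 also: lentivirally expressed fusions sorted by FACS into six bins by GFP to DsRed ratio, PSI derived from sequencing read proportions per bin multiplied by bin number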
# protocol_conditions: c terminus: a fixed tail appended
Quick list: protein stability index per entry.

monomer_sequence	measured_attribute	reading
RKADFKAGKACVISGREVFEFRPE	protein stability index	3.09
RKADFKAGKALWISGREVFEFRPE	protein stability index	2.4

Query: protein stability index; subject: RKADFKAGKALVISGREVFEFRPV
2

Query: protein stability index; subject: RKADFKAGKWLVISGREVFEFRPE
2.97
